Target Of Assay: DNA gyrase (Staphylococcus aureus) (UniProt P0A0K8+P20831)
Sequence (P0A0K8 2-644 limits assumed): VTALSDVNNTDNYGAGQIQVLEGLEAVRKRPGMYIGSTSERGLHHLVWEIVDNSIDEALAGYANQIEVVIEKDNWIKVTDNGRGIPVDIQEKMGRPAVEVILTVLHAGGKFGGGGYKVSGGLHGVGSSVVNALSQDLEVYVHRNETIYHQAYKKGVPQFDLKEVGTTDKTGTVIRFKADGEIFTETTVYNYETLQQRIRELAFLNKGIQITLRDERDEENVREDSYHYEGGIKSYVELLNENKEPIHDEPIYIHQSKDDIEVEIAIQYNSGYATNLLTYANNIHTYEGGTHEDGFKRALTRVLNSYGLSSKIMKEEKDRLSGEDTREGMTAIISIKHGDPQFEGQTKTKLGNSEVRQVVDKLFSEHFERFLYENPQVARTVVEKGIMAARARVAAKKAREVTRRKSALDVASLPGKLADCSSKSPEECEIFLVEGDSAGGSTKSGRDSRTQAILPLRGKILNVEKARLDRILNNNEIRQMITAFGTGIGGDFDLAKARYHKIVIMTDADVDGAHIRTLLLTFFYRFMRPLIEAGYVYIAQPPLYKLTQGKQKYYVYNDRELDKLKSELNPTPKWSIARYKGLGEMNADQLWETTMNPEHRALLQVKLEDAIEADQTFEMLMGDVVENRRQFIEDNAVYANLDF
Sequence (P20831 whole entry partner): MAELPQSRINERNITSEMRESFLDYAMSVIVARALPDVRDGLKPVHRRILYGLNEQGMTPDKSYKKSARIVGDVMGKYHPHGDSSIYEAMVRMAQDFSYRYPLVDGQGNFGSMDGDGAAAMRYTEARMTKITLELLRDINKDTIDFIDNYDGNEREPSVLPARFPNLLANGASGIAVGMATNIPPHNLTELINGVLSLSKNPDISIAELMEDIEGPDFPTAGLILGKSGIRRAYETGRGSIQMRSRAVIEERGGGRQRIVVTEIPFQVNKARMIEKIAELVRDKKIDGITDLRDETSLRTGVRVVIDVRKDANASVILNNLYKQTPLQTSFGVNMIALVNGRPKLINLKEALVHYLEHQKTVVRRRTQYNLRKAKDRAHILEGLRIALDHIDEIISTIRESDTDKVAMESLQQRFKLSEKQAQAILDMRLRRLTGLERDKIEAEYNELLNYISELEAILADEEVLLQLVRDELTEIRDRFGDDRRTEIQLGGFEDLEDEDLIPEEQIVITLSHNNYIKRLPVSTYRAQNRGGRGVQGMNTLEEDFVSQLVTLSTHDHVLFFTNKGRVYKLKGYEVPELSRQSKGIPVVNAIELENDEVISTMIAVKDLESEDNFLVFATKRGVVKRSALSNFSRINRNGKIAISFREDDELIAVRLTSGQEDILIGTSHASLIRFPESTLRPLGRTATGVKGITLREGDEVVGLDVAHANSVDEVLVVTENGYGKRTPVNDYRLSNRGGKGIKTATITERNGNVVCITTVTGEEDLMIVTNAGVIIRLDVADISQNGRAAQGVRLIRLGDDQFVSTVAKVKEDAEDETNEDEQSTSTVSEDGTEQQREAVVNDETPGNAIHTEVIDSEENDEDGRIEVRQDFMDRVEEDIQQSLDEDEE
Measurement Notes: In vitro antibacterial activity against gram-positive organism Staphylococcus aureus ATCC 6538p
Assay type: functional
Quantity Measured: log10(MIC) (log10 of the value in µg/mL)
Reminder: these figures are log10 of reported MIC, in µg/mL before transformation.

Guide cases for log10(MIC), answers given:
[[record]]
compound = "O=C(O)c1cc(C2CC2)c2cc(N3CCNCC3)c(F)cn2c1=O"
quantity_measured = "log10(MIC)"
endpoint_result = -0.70

[[record]]
compound = "Cc1c(N2C[C@H]3CCC[C@H](N)[C@H]3C2)c(F)cn2c(=O)c(C(=O)O)cc(C3CC3)c12"
quantity_measured = "log10(MIC)"
endpoint_result = -2.30

[[record]]
compound = "Cc1c(N2CC[C@H]([C@@H](C)N)C2)c(F)cn2c(=O)c(C(=O)O)cc(C3CC3)c12"
quantity_measured = "log10(MIC)"
endpoint_result = -2.70

[[record]]
compound = "Cc1c(N2CC(N)C2)c(F)cn2c(=O)c(C(=O)O)cc(C3CC3)c12"
quantity_measured = "log10(MIC)"
endpoint_result = -1.00

[[record]]
compound = "Cc1c(N2C[C@@H]3[C@@H](N)[C@@H]3C2)c(F)cn2c(=O)c(C(=O)O)cc(C3CC3)c12"
quantity_measured = "log10(MIC)"
endpoint_result = -1.70


Sample Cc1c(N2CCC(CN)C2)c(F)cn2c(=O)c(C(=O)O)cc(C3CC3)c12 (stereo not given) ; log10(MIC) observed: -2.70

Sample Cc1c(-n2ccnc2)c(F)cn2c(=O)c(C(=O)O)cc(C3CC3)c12 ; log10(MIC) observed: -1.00

Sample Cc1c(N2CC[C@@H]3CNC[C@@H]32)c(F)cn2c(=O)c(C(=O)O)cc(C3CC3)c12 ; log10(MIC) observed: -1.30
